Reported viability, T/C values for the following compounds.
Test system: 556581-035-R-J1-PDC complex spheroid growth;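 note: compound exposure lasted 7 days; 100% = DMSO vehicle control growth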
Assay: Anticancer human tumor 556581-035-R-J1-PDC patient-derived ovarian carcinoma cell line growth inhibition [AhR]
Conditions: second compound 0.316 µM; first compound 1 µM; stronger effect = lower value
Source text: Multicellular complex tumor spheroid response to aryl hydrocarbon receptor antagonists in combination with a variety of drugs and investigational agents in selected tumor cell lines […] Compounds. […] If the clinical Cmax for an agent had not been determined, the highest concentration tested was 10 microM (Table 1). […]
measured attribute: viability, T/C (%)

>>> result_number("COc1ccc([C@@H](O)c2cc(-c3ncnc4cc(N5CCOCC5)ccc34)c(F)cc2Cl)nn1 + Cc1cncc(-c2nc(NCCc3c[nH]c4ccccc34)c3ncn(C(C)C)c3n2)c1")
77.8
>>> result_number("NS(=O)(=O)OCC1CC(n2ccc3c(NC4CCc5ccccc54)ncnc32)CC1O (stereo not drawn) + Cc1cncc(-c2nc(NCCc3c[nH]c4ccccc34)c3ncn(C(C)C)c3n2)c1")
85.8
>>> result_number("COc1cc(C2c3cc4c(cc3C(OC3OC5COC(C)OC5C(O)C3O)C3COC(=O)C23)OCO4)cc(OC)c1O (stereo not drawn) + Cc1cncc(-c2nc(NCCc3c[nH]c4ccccc34)c3ncn(C(C)C)c3n2)c1")
75.9
